target of assay: tumor cell-secreted nucleoside diphosphate kinase-B (NDPK-B, Nm23-H2) (Homo sapiens, UniProt P22392)
Construct: Partially purified tumor cell-secreted nucleoside diphosphate kinase-B was incubated with ADP and GTP; endogenous in cells; host or cells: human tumor cell lines MDA-MB-435s, Calu-1, WiDr and PC-3; concentrated conditioned Krebs buffer
Sequence (P22392 whole entry): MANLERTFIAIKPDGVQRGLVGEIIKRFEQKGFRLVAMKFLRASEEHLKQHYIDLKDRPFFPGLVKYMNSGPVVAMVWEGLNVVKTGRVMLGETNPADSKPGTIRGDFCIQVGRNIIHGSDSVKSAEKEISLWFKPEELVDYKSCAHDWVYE
experimental protocol: NDPK-B kinase activity assay (ADP to ATP with GTP as phosphoryl donor, luciferin-luciferase)
Assay type: biochemical
settings: inhibition of NDPK-B activity, Yes/No; conc. tested differs per compound (0.3-10,000 μM)
Experimental: The human tumors MDA-MB-435s (breast ductal carcinoma), Calu-1 (metastatic lung carcinoma), WiDr (colorectal carcinoma), and PC-3 (prostatic carcinoma) were grown to confluence in DMEM with 10% heat-inactivated FBS and antibiotics. Media was replaced with Krebs buffer (25 mM Hepes, pH 7.4) and incubated at 37° C. with gentle rocking for 4 hours. […] Conversion of ADP to ATP, using GTP as the phosphoryl donor, was quantified using the Luciferin-Luciferase ATP assay as we have previously described (9). […]
quantity kind: Inhibition

molecule	Inhibition
O=C(O[C@@H]1Cc2c(O)cc(O)cc2O[C@@H]1c1ccc(O)c(O)c1)c1cc(O)c(O)c(O)c1 [ECG, epicatechin gallate]	Yes
O=c1oc2c(O)c(O)cc3c(=O)oc4c(O)c(O)cc1c4c23 [Ellagic Acid, hexahydroxydiphenic acid dilactone]	Yes
Nc1ncnc2c1nc(Cl)n2[C@@H]1O[C@@H]2COP(=O)(O)O[C@H]2[C@H]1O [8-Cl-cAMP]	Yes
Oc1cc(O)c2c(c1)O[C@H](c1cc(O)c(O)c(O)c1)[C@H](O)C2 [EGC, epigallocatechin]	No
O=C(O[C@@H]1Cc2c(O)cc(O)cc2O[C@@H]1c1cc(O)c(O)c(O)c1)c1cc(O)c(O)c(O)c1 [EGCG, epigallocatechin gallate]	Yes

Read the next record carefully.
Which value of Inhibition has been reported for O=c1c(O)cccc2cc(O)c(O)c(O)c12 [Purpurogallin] in the records? Yes

----------
target of assay: tumor cell-secreted nucleoside diphosphate kinase-B (NDPK-B, Nm23-H2) (Homo sapiens)
Construct: Partially purified tumor cell-secreted nucleoside diphosphate kinase-B was incubated with ADP and GTP; endogenous in cells; host or cells: human tumor cell lines MDA-MB-435s, Calu-1, WiDr and PC-3; concentrated conditioned Krebs buffer
experimental protocol: NDPK-B kinase activity assay (ADP to ATP with GTP as phosphoryl donor, luciferin-luciferase)
Assay type: biochemical
settings: inhibition of NDPK-B activity, Yes/No; conc. tested differs per compound (0.3-10,000 μM)

compound	Inhibition
Nc1ncnc2c1ncn2[C@@H]1O[C@H](COP(=O)(O)OS(=O)(=O)O)[C@@H](OP(=O)(O)O)[C@H]1O [PAPS]	Yes
Cc1cn([C@H]2C[C@H](N=[N+]=[N-])[C@@H](CO)O2)c(=O)[nH]c1=O [AZT]	No
O=c1c(-c2ccc(O)cc2)coc2cc(O)cc(O)c12 [Genestein, genestein]	No
Oc1ccc(C=Cc2cc(O)cc(O)c2)cc1 [Resveratrol, resveratrol]	No
